- method-description: Toxicity liver stage against HepG2, at 10uM
- Assay type: cell-based
- Set-up: test concentration 10 uM, cell line HepG2-A16-CD81EGFP
- reported-conditions: human, HepG2-A16-CD81EGFP cells; read-out: INHIBITION
parameter: cytotoxicity at 10 µM

Q. Any idea what cytotoxicity at 10 µM was measured for c1c[nH]c(CN2CCCC(Cc3ccc(NC4CCCC4)nn3)C2)n1 (centres undefined) ?
A. -3.95%

Q. Try COC(=O)N1CCC(NC2CCSCC2)C1 (centres undefined) next.
A. -8.23%

Q. Try COc1c(CNC2CCOc3c(Cl)cccc32)c(C)nn1C (centres undefined) next.
A. 28.9%

Q. Try Cc1ccc(C(=O)N2CCCC(CNS(=O)(=O)C(C)C)C2)cc1 (centres undefined) next.
A. -1.42%

Q. Try O=C(c1cccnc1)N1C[C@@H]2CN(CCN3CCCC3)C(=O)[C@@H]2C1 next.
A. -113%

Q. Try Nc1nccc(N2CCCC(CO)(CCOc3ccccc3)C2)n1 (centres undefined) next.
A. 46.7%

Q. Try Cc1nc(CSCCC(=O)NCc2ccncc2)cs1 next.
A. -15.6%

Q. Try COCC(=O)N1CCCC(COc2ccccc2C)C1 (centres undefined) next.
A. 2.06%

Q. Try Cc1c(CN2CCC(C(=O)O)(n3cccn3)CC2)oc2ccccc12 next.
A. -2.67%

Q. Try COCC(=O)N1CCC2(CC1)c1ccccc1[C@@H](N1CCSCC1)[C@@H]2O next.
A. 4.58%

Q. Try Cc1ccccc1-n1c(C)cc(=O)[nH]c1=O next.
A. -2.4%

Q. Try Cn1cc(CN2CCC(c3[nH]ncc3S(C)(=O)=O)C2)cn1 (centres undefined) next.
A. -4.55%

Q. Try Cc1ncsc1CN1C[C@H](NC(=O)C2CCOCC2)[C@@H](C(C)C)C1 next.
A. 6.67%

Q. Try CCN(CC1CCCN(CCc2cccc(OC)c2)C1)C(=O)CN(C)C (centres undefined) next.
A. 9.05%

Q. Try COc1cccc(-c2n[nH]cc2C(=O)NC(C)c2n[nH]c(C)n2)c1 (centres undefined) next.
A. -6.26%

Q. Try Cc1cc(CN2CCCC2c2c(C)nn(C)c2Cl)no1 (centres undefined) next.
A. -6.98%

Q. Try CC(C(=O)N1CCN(c2ccc(F)cc2)CC1)n1cc(Br)cn1 (centres undefined) next.
A. 9.35%

Q. Try C=C(C)CN(CC)C(=O)CN1CCCC1C(=O)N(C)C (centres undefined) next.
A. 8.52%

Q. Try COCCc1noc(CNC(C)(CO)C2CCCCC2)n1 (centres undefined) next.
A. 7.88%

Q. Try CCN(CC)Cc1cc(C(=O)N2CC[C@@]3(O)CCCC[C@H]3C2)c(C)o1 next.
A. 2.93%

Q. Try CC(=O)N1[C@H](Cn2cncn2)C[C@@H]2CN(Cc3cccnc3)CC[C@@H]21 next.
A. 3.16%

Q. Try COc1ccc(C[C@H]2CN(C(=O)C3CC3)CC[C@H]2OC)cc1 next.
A. 2.67%

Q. Try O=C(CCc1ccsc1)N1CCC(C(=O)O)(c2ccccc2)CC1 next.
A. 12.4%

Q. Try COCCN1CCN(Cc2cnc(C)nc2)CC1 next.
A. -22.8%
